Below, each entry is listed alongside its reported TLB % Control.
System: Phytophthora infestans
Assay type: in vivo, Phytophthora infestans on tomato
Details: hydrazone 50 ppm + 50 μM CuCl2.2H2O, applied 24 h before inoculation, assessed 7 days after inoculation, tomato
Please respond with the number in % and leave the unit unwritten.

compound | TLB % Control [%]
C/C(=N\NC(=O)c1cccc(F)c1)c1ccccc1O [Example 25] | 35.1
C/C(=N\NC(=O)c1cccc(C)c1)c1cccc([N+](=O)[O-])c1O [Example 270] | 61.0
O=C(N/N=C/c1cc(Cl)c(Cl)cc1O)c1ccccc1 [Example 240] | 74.6
Cc1ccccc1C(=O)N/N=C/c1cc(Cl)cc(Br)c1O [Example 162] | 94.0
CNc1ccccc1C(=O)N/N=C/c1ccccc1O [Example 3] | 47.0
C/C(=N\NC(=O)c1cccc(I)c1)c1ccccc1O [Example 26] | 12.3
Cc1cc(C)cc(C(=O)N/N=C/c2cc(Br)cc(Br)c2O)c1 [Example 110] | 76.4
O=C(N/N=C/c1cc(Cl)ccc1O)c1cccc(Cl)c1 [Example 178] | 59.3

Look up and state reported TLB % Control for O=C(N/N=C/c1cc(Br)cc(Br)c1O)c1ccccc1Cl [Example 112]
78.2

Look up and state reported TLB % Control for C/C(=N\NC(=O)c1ccccc1O)c1ccccc1O [Example 213]
56.1

The measurements presented in this section are drawn from patent US20120010075A1.
